Hey, just so you know, these numbers are from patent US20210198347A1.

- TESTED ON: T1, Native human C1r enzyme (Comptech A102) (human, UniProt P00736 18-705)
- T1 construct: mature
- T1 sequence (looked up): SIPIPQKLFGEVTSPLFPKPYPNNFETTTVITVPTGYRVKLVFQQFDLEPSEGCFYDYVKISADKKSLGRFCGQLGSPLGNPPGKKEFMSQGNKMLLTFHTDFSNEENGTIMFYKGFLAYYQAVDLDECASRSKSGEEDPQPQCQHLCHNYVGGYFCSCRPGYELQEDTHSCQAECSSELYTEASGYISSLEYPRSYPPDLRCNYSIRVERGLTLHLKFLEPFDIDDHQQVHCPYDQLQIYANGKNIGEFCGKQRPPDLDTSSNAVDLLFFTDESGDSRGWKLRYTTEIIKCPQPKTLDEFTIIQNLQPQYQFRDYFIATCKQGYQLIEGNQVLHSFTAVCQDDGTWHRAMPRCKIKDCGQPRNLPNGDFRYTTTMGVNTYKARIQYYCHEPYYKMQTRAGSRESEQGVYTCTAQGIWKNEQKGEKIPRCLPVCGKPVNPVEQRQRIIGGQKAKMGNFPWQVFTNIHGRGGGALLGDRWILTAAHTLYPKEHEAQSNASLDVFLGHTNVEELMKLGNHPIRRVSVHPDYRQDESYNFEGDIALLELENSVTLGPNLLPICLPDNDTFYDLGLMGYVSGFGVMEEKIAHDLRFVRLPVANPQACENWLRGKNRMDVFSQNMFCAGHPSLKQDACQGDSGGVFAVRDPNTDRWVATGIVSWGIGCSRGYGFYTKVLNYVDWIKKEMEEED
- EXPERIMENTAL PROTOCOL: SPR (BIACORE T200, 37 degrees C, pH 7.4), antibody captured by protein A/G, C1r 25 nM as a dimer
READOUT: binding result

COR0067ff-SG1148 (antibody, human IgG1, kappa, V domains shown, Anti-C1r antibody) VH: QSLEESGGGLVQPEGSLTLTCKASGIDFSSNAMCWVRQAPGKGLEWIGCIYTGSTTIWYASWAKGRFTISKTSSTTVTLQLNSLTVADTATYFCARRDSSSGYAFKLWGPGTLVTVSS VL: DIVMTQTPSSVSAAVGGTVTIKCQASENIYSNLAWYQQKSGQPPNLLIYGASTLESGVPSRFKGSGSGTEFTLTISDLECADAAIYYCQCTYDDSSTFGGGTKVEIKR ... binds
COR0208cc-SG1148 (antibody, human IgG1, kappa, V domains shown, Anti-C1r antibody; also called COR208; COR208cc(-SG1148)) VH: QSVEESGGRLVTPGTPLTLTCTVSGFSLSNYYMNWVRQAPGKGLEWIGIIASDDNTWYASWAKGRFTISKTSTTVDLKITSPTTEDTATYFCARDLDVGYGSGWYDLWGQGTLVTVSS VL: AAVLTQTPSPVSVAVGGTVTINCQASQSVYNNNYLAWYQQEPGHRPKLLIYRASKLASGVPSRFSGSGSGTQFTLTISGVQCDDAATYYCLGGYDDFTDTTFGGGTKVEIKR ... binds
